Target: Adenosine receptor A2a (Homo sapiens, UniProt P29274)
Sequence (P29274 whole entry): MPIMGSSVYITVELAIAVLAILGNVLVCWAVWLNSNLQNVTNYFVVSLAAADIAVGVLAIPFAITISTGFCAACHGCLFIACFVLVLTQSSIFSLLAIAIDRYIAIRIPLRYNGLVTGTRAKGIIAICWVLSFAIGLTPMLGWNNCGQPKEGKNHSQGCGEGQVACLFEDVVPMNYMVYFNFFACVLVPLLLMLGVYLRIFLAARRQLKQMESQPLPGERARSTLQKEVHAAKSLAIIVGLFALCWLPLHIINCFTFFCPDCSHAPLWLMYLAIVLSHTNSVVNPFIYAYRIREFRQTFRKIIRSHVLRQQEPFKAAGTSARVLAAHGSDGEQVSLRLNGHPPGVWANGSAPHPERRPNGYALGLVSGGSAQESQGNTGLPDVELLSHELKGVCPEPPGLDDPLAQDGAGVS
Experiment: Displacement of [3H]ZM241385 from human cloned adenosine A2A receptor expressed in human HeLa cells
Format: cell-based
measure.name: Ki (nM)
Enter your answer as a number in nM; do not include the unit.

IN: // map `CCCn1c(=O)c2[nH]c(-c3ccc(C(C)=O)cc3)c(O)c2n(CCC)c1=O` to recorded Ki (system: Adenosine receptor A2a (Homo sapiens, UniProt P29274))
OUT: 324

IN: Could you do the same for `CCCn1c(=O)c2c(cc(-c3ccc(C)cc3)n2O)n(CCC)c1=O` , please?
OUT: 398

IN: Also `CCCn1c(=O)c2[nH]c(-c3ccc(S(C)(=O)=O)cc3)c(O)c2n(CCC)c1=O` ?
OUT: 28
